The values you see were collected from paper PMC3814616.

Target Desc: TAOK3 (Homo sapiens)
Construct: purchased KINOMEscan (DiscoveRx), San Diego, CA
Sequence (Q9H2K8 whole entry): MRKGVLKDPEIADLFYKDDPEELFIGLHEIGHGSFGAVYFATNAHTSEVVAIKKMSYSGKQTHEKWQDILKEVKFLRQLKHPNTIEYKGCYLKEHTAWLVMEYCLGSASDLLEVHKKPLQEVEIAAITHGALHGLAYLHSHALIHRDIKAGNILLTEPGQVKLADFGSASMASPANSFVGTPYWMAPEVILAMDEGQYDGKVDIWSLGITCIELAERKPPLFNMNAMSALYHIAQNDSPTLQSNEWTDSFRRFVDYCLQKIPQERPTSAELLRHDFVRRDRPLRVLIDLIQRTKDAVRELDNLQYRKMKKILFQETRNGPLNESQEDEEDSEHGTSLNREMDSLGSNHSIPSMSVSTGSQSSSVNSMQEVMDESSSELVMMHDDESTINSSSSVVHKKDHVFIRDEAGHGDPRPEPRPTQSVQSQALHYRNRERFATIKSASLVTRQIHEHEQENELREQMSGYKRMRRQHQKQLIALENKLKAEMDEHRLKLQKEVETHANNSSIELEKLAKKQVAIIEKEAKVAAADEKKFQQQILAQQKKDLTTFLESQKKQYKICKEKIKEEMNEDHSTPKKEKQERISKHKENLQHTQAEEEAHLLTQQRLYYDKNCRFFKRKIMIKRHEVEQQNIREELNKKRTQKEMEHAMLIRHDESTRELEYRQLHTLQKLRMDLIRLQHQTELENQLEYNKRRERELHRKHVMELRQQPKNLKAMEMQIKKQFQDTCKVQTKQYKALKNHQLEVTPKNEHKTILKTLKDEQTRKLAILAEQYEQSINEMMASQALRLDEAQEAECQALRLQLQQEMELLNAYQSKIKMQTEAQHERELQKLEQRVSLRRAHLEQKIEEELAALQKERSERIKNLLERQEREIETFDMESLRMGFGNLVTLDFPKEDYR
Protocol Notes: Quantitative competitive binding assay (KINOMEscan)
Measurement Context: estimated Kd, averaged pointwise estimates, transformed Hill equation; read-out: Calculated estimate of IC50
Outcome Measure: IC50
State the value, then name its unit.

Lookup: Using the record for `CCCS(=O)(=O)Nc1ccc(F)c(C(=O)c2c[nH]c3ncc(-c4ccc(Cl)cc4)cc23)c1F` , report its IC50.
Found: 15.5 µM

* * *

Target Desc: ASK1 (MAP3K5) (Homo sapiens)
Construct: purchased KINOMEscan (DiscoveRx), San Diego, CA
Sequence (Q99683 whole entry): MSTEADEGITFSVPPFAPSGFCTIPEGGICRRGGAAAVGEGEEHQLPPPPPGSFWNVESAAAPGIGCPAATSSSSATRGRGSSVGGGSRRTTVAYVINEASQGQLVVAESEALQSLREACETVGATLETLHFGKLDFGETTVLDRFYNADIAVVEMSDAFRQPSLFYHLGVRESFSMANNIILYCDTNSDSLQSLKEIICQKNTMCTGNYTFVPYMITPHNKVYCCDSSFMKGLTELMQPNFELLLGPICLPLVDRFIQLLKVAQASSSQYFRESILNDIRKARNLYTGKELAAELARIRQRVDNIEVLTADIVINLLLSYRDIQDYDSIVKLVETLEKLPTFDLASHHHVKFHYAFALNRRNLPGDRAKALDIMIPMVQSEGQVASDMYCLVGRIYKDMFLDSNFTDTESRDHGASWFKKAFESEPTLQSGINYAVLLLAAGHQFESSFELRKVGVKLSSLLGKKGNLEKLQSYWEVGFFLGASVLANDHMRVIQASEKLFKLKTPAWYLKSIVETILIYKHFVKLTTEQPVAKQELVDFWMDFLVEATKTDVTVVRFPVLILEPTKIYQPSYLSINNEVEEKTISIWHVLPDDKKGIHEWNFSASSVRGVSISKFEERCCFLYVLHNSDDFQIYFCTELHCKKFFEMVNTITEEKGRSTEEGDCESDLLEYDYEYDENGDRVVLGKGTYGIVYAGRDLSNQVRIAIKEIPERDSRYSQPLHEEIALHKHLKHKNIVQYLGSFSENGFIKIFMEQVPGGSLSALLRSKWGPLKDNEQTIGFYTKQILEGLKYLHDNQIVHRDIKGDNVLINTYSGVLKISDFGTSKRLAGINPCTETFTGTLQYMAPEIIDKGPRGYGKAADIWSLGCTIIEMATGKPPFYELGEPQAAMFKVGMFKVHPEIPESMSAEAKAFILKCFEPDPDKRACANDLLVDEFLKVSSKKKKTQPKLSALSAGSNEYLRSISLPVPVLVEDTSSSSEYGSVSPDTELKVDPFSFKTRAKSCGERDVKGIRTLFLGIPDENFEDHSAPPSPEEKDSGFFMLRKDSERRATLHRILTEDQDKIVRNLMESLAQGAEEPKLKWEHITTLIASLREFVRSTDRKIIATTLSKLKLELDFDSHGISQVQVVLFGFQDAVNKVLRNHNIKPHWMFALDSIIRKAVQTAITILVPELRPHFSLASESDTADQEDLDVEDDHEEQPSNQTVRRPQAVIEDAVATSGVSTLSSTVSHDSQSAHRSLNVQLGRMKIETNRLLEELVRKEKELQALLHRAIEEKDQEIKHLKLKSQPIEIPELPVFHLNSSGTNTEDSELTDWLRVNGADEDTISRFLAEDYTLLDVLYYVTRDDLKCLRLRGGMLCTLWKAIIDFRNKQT
Protocol Notes: Quantitative competitive binding assay (KINOMEscan)
Measurement Context: estimated Kd, averaged pointwise estimates, transformed Hill equation; read-out: Calculated estimate of IC50
In this section, each of the compounds is paired with its reported pIC50.
Answer as the number alone; pIC50 is minus log10 of concentration in mol/L.

{"Substance Smiles": "CCCS(=O)(=O)Nc1ccc(F)c(C(=O)c2c[nH]c3ncc(Cl)cc23)c1F", "Outcome Measure": "pIC50", "Reported": 4.85}

Lookup: Please look up its pIC50: `CCCS(=O)(=O)Nc1ccc(F)c(C(=O)c2c[nH]c3ncc(-c4ccc(Cl)cc4)cc23)c1F`
Found: 4.92

* * *

Target Desc: FGR (Homo sapiens)
Construct: purchased KINOMEscan (DiscoveRx), San Diego, CA
Sequence (P09769 whole entry): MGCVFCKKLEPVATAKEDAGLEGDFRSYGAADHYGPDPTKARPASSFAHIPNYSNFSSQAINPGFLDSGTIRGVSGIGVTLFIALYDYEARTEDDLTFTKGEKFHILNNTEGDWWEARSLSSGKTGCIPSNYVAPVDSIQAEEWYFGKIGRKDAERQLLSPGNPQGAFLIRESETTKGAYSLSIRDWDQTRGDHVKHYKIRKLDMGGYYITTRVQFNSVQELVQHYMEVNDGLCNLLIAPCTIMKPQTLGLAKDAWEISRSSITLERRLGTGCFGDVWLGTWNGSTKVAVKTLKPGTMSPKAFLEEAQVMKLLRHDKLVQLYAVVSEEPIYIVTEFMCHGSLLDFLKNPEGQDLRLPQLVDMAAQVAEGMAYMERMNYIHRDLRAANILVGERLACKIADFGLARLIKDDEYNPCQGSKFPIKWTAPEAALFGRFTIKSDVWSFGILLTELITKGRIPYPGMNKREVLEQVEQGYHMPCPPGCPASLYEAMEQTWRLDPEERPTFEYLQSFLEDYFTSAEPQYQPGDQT
Protocol Notes: Quantitative competitive binding assay (KINOMEscan)
Measurement Context: estimated Kd, averaged pointwise estimates, transformed Hill equation; read-out: Calculated estimate of IC50
Recorded pIC50 values for a group of molecules are listed next.
Note on pIC50: it is the negative log10 of concentration, concentration in mol/L.

{"Substance Smiles": "CCCS(=O)(=O)Nc1ccc(F)c(C(=O)c2c[nH]c3ncc(Cl)cc23)c1F", "Target Desc": "FGR (Homo sapiens)", "pIC50": 6.81}

From here, focus on the item given below.
Lookup: Sample `CCCS(=O)(=O)Nc1ccc(F)c(C(=O)c2c[nH]c3ncc(-c4ccc(Cl)cc4)cc23)c1F` — what was its pIC50?
Found: 6.83

* * *

Target Desc: full length MAP4K5 (Homo sapiens)
Sequence (Q9Y4K4 whole entry): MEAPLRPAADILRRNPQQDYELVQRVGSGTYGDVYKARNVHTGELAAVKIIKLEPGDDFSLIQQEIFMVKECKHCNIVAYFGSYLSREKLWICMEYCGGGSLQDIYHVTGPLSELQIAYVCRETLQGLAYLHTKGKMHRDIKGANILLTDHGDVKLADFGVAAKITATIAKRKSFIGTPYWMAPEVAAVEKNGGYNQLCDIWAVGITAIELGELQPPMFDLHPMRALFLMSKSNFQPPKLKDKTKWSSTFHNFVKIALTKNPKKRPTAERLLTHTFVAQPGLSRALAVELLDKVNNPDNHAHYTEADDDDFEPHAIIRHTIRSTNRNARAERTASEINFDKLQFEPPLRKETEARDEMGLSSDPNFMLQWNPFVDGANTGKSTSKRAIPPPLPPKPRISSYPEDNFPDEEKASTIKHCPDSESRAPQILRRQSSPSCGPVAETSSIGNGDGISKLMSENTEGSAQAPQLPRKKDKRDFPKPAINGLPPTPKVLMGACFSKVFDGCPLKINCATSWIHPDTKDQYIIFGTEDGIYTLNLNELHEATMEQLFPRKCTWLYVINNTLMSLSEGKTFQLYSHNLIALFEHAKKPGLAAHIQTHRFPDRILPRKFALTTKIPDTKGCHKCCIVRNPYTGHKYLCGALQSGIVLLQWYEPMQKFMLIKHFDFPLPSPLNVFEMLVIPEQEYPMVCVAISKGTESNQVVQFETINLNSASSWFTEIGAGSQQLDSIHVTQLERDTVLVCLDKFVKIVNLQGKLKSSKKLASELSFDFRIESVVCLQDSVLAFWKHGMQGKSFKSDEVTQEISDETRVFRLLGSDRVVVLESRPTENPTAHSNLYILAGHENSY
Outcome Measure: IC50 (nM)
Report only the number, with the unit nM understood.

Lookup: // lookup IC50 | system=full length MAP4K5 (Homo sapiens) | key= `CCCS(=O)(=O)Nc1ccc(F)c(C(=O)c2c[nH]c3ncc(-c4ccc(Cl)cc4)cc23)c1F`
Found: 354
